Please go through the items and note down their GI50.
Test system: SNB-19 CNS
test_name: NCI tumour cell line growth inhibition, 48 h

CC(=O)Oc1ccc(C23c4ccccc4C2(OC(C)=O)c2cc(OC(C)=O)ccc23)cc1 (centres undefined)    4.64 µM
Cc1ncc(C(=O)Nc2ccc(CN3CCN(C)CC3)c(C(F)(F)F)c2)cc1C#Cc1cnc2cccnn12    1.22 µM

Respectfully, I request GI50 for each entry included below.
1. Cc1nc(-c2ccccc2)n2nc(NCCCN3CCOCC3)ncc12
2. CC(C)Nc1cc(-c2c[nH]c(C(=O)N[C@H](CO)c3cccc(Cl)c3)c2)c(Cl)cn1
3. O=C(NOC[C@H](O)CO)c1ccc(F)c(F)c1Nc1ccc(I)cc1F
4. CN(CCCCCl)P(=O)(OCCS(=O)(=O)CC(NC(=O)CCC(N)C(=O)O)C(=O)NC(C(=O)O)c1ccccc1)OCC1OC(n2ccc(N)nc2=O)C(F)(F)C1O (centres undefined)
5. COc1ccccc1C#Cc1ccccc1C#CCCCCO
6. COc1cc(F)c(F)c(Nc2ccc(I)cc2F)c1NS(=O)(=O)C1(C[C@H](O)CO)CC1

["> 25 µM", "4.84 µM", "20.6 µM", "0.143 µM", "16.7 µM", "1.83 µM"]

Fill: GI50 (SNB-19 CNS) for this molecule NS(=O)(=O)c1ccc(-n2nc3c(c2-c2ccc(Cl)cc2)Cc2ccccc2-3)cc1 31.7 µM

Hey, just so you know, these numbers are from PubChem BioAssay (NCI).
